Read-out: Interleukin-8 (IL8), CXCL8 (gene 3576)
Assay: BSK_LPS_IL8: BioMAP Diversity Plus: LPS Assay for Interleukin-8 (IL8) Biomarker Activity (AID 2283078)
Settings: primary human HUVEC with PBMC; actives raise or lower the signal
Calls of active or inactive are those of the source. How the source made its calls: active means hit-call score of the fitted dose curve at least 0.9, where 1 is the maximum; inactive means score below 0.9.
Classes to choose from: active, inactive

Please review the following examples before continuing.
[
  {
    "compound": "IC(I)I",
    "class name": "inactive"
  },
  {
    "compound": "COc1ccc(OC)c(N=Nc2c(O)ccc3ccccc23)c1",
    "class name": "inactive"
  }
]

Attention now turns to another entry.
Write down the call the test reported for this compound. Item: `CCCCCCCCCCCCCCCC(=O)OC/C=C(C)/C=C/C=C(C)/C=C/C1=C(C)CCCC1(C)C` inactive

Where these numbers come from: PubChem BioAssay (EPA / NIEHS)
